Test: Compound stability test in mouse blood
Format: in vitro ADME
Conditions: mouse blood, 37° C., 1 μM, 0 min
QUANTITY: Remaining Percentages (%)

COMPOUND	QUANTITY	UNITS	OBSERVED_RESULT
CCC(C)n1ncn(-c2ccc(N3CCN(c4ccc(OCC5COC(Cn6c[n+](COC(=O)C(C)C)cn6)(c6ccc(Cl)cc6Cl)O5)cc4)CC3)cc2)c1=O.[Cl-] (stereo not drawn) [Compound 4]	Remaining Percentages (%)	%	100
CCCOC(=O)OC[n+]1cnn(CC2(c3ccc(Cl)cc3Cl)OCC(COc3ccc(N4CCN(c5ccc(-n6cnn(C(C)CC)c6=O)cc5)CC4)cc3)O2)c1.[Cl-] (stereo not drawn) [Compound 7]	Remaining Percentages (%)	%	100
CC(C)[N+](C)(CCOC(=O)C1c2ccccc2Oc2ccccc21)C(C)C [Propantheline, propantheline, reference compound]	Remaining Percentages (%)	%	100
CCC(C)n1ncn(-c2ccc(N3CCN(c4ccc(OCC5COC(Cn6c[n+](COC(=O)OC(C)C)cn6)(c6ccc(Cl)cc6Cl)O5)cc4)CC3)cc2)c1=O.[Cl-] (stereo not drawn) [Compound 8]	Remaining Percentages (%)	%	100
CCC(C)n1ncn(-c2ccc(N3CCN(c4ccc(OCC5COC(Cn6c[n+](C)cn6)(c6ccc(Cl)cc6Cl)O5)cc4)CC3)cc2)c1=O.[Cl-] (stereo not drawn) [Compound 1]	Remaining Percentages (%)	%	100
CCC(C)n1ncn(-c2ccc(N3CCN(c4ccc(OCC5COC(Cn6c[n+](COC(C)=O)cn6)(c6ccc(Cl)cc6Cl)O5)cc4)CC3)cc2)c1=O.[Cl-] (stereo not drawn) [Compound 3]	Remaining Percentages (%)	%	100
CCOC(=O)OC[n+]1cnn(CC2(c3ccc(Cl)cc3Cl)OCC(COc3ccc(N4CCN(c5ccc(-n6cnn(C(C)CC)c6=O)cc5)CC4)cc3)O2)c1.[Cl-] (stereo not drawn) [Compound 6]	Remaining Percentages (%)	%	100
CCC(C)n1ncn(-c2ccc(N3CCN(c4ccc(OCC5COC(Cn6c[n+](COC(=O)C(C)(C)C)cn6)(c6ccc(Cl)cc6Cl)O5)cc4)CC3)cc2)c1=O.[Cl-] (stereo not drawn) [Compound 5]	Remaining Percentages (%)	%	100
CCC(C)n1ncn(-c2ccc(N3CCN(c4ccc(OCC5COC(Cn6c[n+](CC)cn6)(c6ccc(Cl)cc6Cl)O5)cc4)CC3)cc2)c1=O.[Cl-] (stereo not drawn) [Compound 2]	Remaining Percentages (%)	%	100

----------
Experiment: Compound stability test in mouse blood
Type: in vitro ADME
Conditions: mouse blood, 37° C., 1 μM, 120 min
QUANTITY: Remaining Percentages (%)

COMPOUND	Remaining Percentages (%)
CCC(C)n1ncn(-c2ccc(N3CCN(c4ccc(OCC5COC(Cn6c[n+](COC(C)=O)cn6)(c6ccc(Cl)cc6Cl)O5)cc4)CC3)cc2)c1=O.[Cl-] (centres unmarked) [Compound 3]	24.4

I: CCC(C)n1ncn(-c2ccc(N3CCN(c4ccc(OCC5COC(Cn6c[n+](COC(=O)OC(C)C)cn6)(c6ccc(Cl)cc6Cl)O5)cc4)CC3)cc2)c1=O.[Cl-] (centres unmarked) [Compound 8]
II: CCOC(=O)OC[n+]1cnn(CC2(c3ccc(Cl)cc3Cl)OCC(COc3ccc(N4CCN(c5ccc(-n6cnn(C(C)CC)c6=O)cc5)CC4)cc3)O2)c1.[Cl-] (centres unmarked) [Compound 6]
Ask | Of the two listed items, I and II , which carries the larger Remaining Percentages (%) figure? Respond using the label that marks the chosen record.
Reply | I
(I: 3.99%, II: 0.186%)

----------
Test: Compound stability test in human blood
Format: in vitro ADME
Conditions: human blood, 37° C., 1 μM, 30 min
QUANTITY: Remaining Percentages (%)

Below, each entry is followed by its recorded Remaining Percentages (%) result.
MOLECULE	OBSERVED_RESULT
CCC(C)n1ncn(-c2ccc(N3CCN(c4ccc(OCC5COC(Cn6c[n+](COC(=O)C(C)(C)C)cn6)(c6ccc(Cl)cc6Cl)O5)cc4)CC3)cc2)c1=O.[Cl-] (stereo not drawn)	30.4
CCC(C)n1ncn(-c2ccc(N3CCN(c4ccc(OCC5COC(Cn6c[n+](COC(=O)OC(C)C)cn6)(c6ccc(Cl)cc6Cl)O5)cc4)CC3)cc2)c1=O.[Cl-] (stereo not drawn)	1.40
CCC(C)n1ncn(-c2ccc(N3CCN(c4ccc(OCC5COC(Cn6c[n+](COC(=O)C(C)C)cn6)(c6ccc(Cl)cc6Cl)O5)cc4)CC3)cc2)c1=O.[Cl-] (stereo not drawn)	30.2

I: CCC(C)n1ncn(-c2ccc(N3CCN(c4ccc(OCC5COC(Cn6c[n+](CC)cn6)(c6ccc(Cl)cc6Cl)O5)cc4)CC3)cc2)c1=O.[Cl-] (stereo not drawn)
II: CC(C)[N+](C)(CCOC(=O)C1c2ccccc2Oc2ccccc21)C(C)C [Propantheline, propantheline, reference compound]
Ask | Kindly identify which of I and II has the larger recorded Remaining Percentages (%) value. // return label of chosen record
Reply | II
(II: 55.8%, I: 26.1%)

----------
Test: Compound stability test in mouse blood
Format: in vitro ADME
Conditions: mouse blood, 37° C., 1 μM, 90 min
Description: One (1) mM test compound working solution was prepared in DMSO. One (1) mM propantheline working solution was prepared in acetonitrile, wherein propantheline was used as positive control in this assay. […] Samples were analyzed by LC-MS/MS. […] All calculations were carried out using Microsoft Excel. Peak area ratios were determined from extracted ion chromatograms, and percent compounds remaining at each time point were calculated by the following equation: […]
QUANTITY: Remaining Percentages (%)

a: CCC(C)n1ncn(-c2ccc(N3CCN(c4ccc(OCC5COC(Cn6c[n+](C)cn6)(c6ccc(Cl)cc6Cl)O5)cc4)CC3)cc2)c1=O.[Cl-] (stereo not drawn) [Compound 1]
b: CCC(C)n1ncn(-c2ccc(N3CCN(c4ccc(OCC5COC(Cn6c[n+](CC)cn6)(c6ccc(Cl)cc6Cl)O5)cc4)CC3)cc2)c1=O.[Cl-] (stereo not drawn) [Compound 2]
Ask | For the two items a and b , which reports the higher Remaining Percentages (%) value? I would appreciate it if you answered with the label of your choice.
Reply | b

----------
Assay: Compound stability test in human blood
Type: in vitro ADME
Conditions: human blood, 37° C., 1 μM, 120 min
QUANTITY: Remaining Percentages (%)

Sample records with Remaining Percentages (%):
MOLECULE	UNITS	Remaining Percentages (%)
CCC(C)n1ncn(-c2ccc(N3CCN(c4ccc(OCC5COC(Cn6c[n+](COC(=O)C(C)(C)C)cn6)(c6ccc(Cl)cc6Cl)O5)cc4)CC3)cc2)c1=O.[Cl-] (stereo not drawn) [Compound 5]	%	2.08
CC(C)[N+](C)(CCOC(=O)C1c2ccccc2Oc2ccccc21)C(C)C [Propantheline, propantheline, reference compound]	%	6.83
CCC(C)n1ncn(-c2ccc(N3CCN(c4ccc(OCC5COC(Cn6c[n+](CC)cn6)(c6ccc(Cl)cc6Cl)O5)cc4)CC3)cc2)c1=O.[Cl-] (stereo not drawn) [Compound 2]	%	1.66

a: CCOC(=O)OC[n+]1cnn(CC2(c3ccc(Cl)cc3Cl)OCC(COc3ccc(N4CCN(c5ccc(-n6cnn(C(C)CC)c6=O)cc5)CC4)cc3)O2)c1.[Cl-] (stereo not drawn) [Compound 6]
b: CCC(C)n1ncn(-c2ccc(N3CCN(c4ccc(OCC5COC(Cn6c[n+](C)cn6)(c6ccc(Cl)cc6Cl)O5)cc4)CC3)cc2)c1=O.[Cl-] (stereo not drawn) [Compound 1]
c: CCC(C)n1ncn(-c2ccc(N3CCN(c4ccc(OCC5COC(Cn6c[n+](COC(C)=O)cn6)(c6ccc(Cl)cc6Cl)O5)cc4)CC3)cc2)c1=O.[Cl-] (stereo not drawn) [Compound 3]
Ask | Order each entry by recorded Remaining Percentages (%), climbing from the minimum. Answer by naming the labels in the order asked.
Reply | b, a, c

----------
Experiment: Compound stability test in mouse blood
Type: in vitro ADME
Conditions: mouse blood, 37° C., 1 μM, 90 min
QUANTITY: Remaining Percentages (%)

I: CC(C)[N+](C)(CCOC(=O)C1c2ccccc2Oc2ccccc21)C(C)C [Propantheline, propantheline, reference compound]
II: CCOC(=O)OC[n+]1cnn(CC2(c3ccc(Cl)cc3Cl)OCC(COc3ccc(N4CCN(c5ccc(-n6cnn(C(C)CC)c6=O)cc5)CC4)cc3)O2)c1.[Cl-] (stereo not drawn)
III: CCC(C)n1ncn(-c2ccc(N3CCN(c4ccc(OCC5COC(Cn6c[n+](COC(=O)OC(C)C)cn6)(c6ccc(Cl)cc6Cl)O5)cc4)CC3)cc2)c1=O.[Cl-] (stereo not drawn)
Ask | Sort (3 molecules) by Remaining Percentages (%): min first. Order the labels as requested and give them as your answer.
Reply | II, III, I
(II: 0.595%, III: 7.0%, I: 20.4%)

----------
Test: Compound stability test in mouse blood
Format: in vitro ADME
Conditions: mouse blood, 37° C., 1 μM, 60 min
QUANTITY: Remaining Percentages (%)

For orientation, consider the following solved cases.
COMPOUND	OBSERVED_RESULT
CCC(C)n1ncn(-c2ccc(N3CCN(c4ccc(OCC5COC(Cn6c[n+](C)cn6)(c6ccc(Cl)cc6Cl)O5)cc4)CC3)cc2)c1=O.[Cl-] (stereo not drawn)	0.00
CCC(C)n1ncn(-c2ccc(N3CCN(c4ccc(OCC5COC(Cn6c[n+](CC)cn6)(c6ccc(Cl)cc6Cl)O5)cc4)CC3)cc2)c1=O.[Cl-] (stereo not drawn)	3.79
CCOC(=O)OC[n+]1cnn(CC2(c3ccc(Cl)cc3Cl)OCC(COc3ccc(N4CCN(c5ccc(-n6cnn(C(C)CC)c6=O)cc5)CC4)cc3)O2)c1.[Cl-] (stereo not drawn)	3.10
CC(C)[N+](C)(CCOC(=O)C1c2ccccc2Oc2ccccc21)C(C)C [Propantheline, propantheline, reference compound]	34.8

a: CCC(C)n1ncn(-c2ccc(N3CCN(c4ccc(OCC5COC(Cn6c[n+](COC(C)=O)cn6)(c6ccc(Cl)cc6Cl)O5)cc4)CC3)cc2)c1=O.[Cl-] (stereo not drawn)
b: CCC(C)n1ncn(-c2ccc(N3CCN(c4ccc(OCC5COC(Cn6c[n+](COC(=O)OC(C)C)cn6)(c6ccc(Cl)cc6Cl)O5)cc4)CC3)cc2)c1=O.[Cl-] (stereo not drawn)
Ask | Given a and b , report the one with the higher recorded Remaining Percentages (%). When you have decided, please share the label of that item.
Reply | a
